tested on: Escherichia coli TOP10; experiment: shrunken log2 fold change of peptide-encoding DNA abundance (4.5 h post-induction vs induction); higher = less antimicrobial activity (less host growth inhibition); details: time post-induction: 4.5 h; library: site-saturation at positions 5, 18, 19, 20
Reported shrunken log2 fold change is given for each of the following sequences.
// keep it numeric: no unit symbol after the value

Incoming: Can you look up the measured shrunken log2 fold change of `RRIRCRPPRLPRPRPRPFGPPRP` for me?
Outgoing: -0.283

###

tested on: Escherichia coli TOP10; test: shrunken log2 fold change of peptide-encoding DNA abundance (4.5 h post-induction vs induction); higher = less antimicrobial activity (less host growth inhibition); conditions: time post-induction: 4.5 h; library: site-saturation at positions 5, 18, 19, 20;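 also: peptides expressed intracellularly from a pBAD plasmid library in pooled LB shake-flask culture, induced with 0.3% L-arabinose, DNA abundance read by NGS, three biological replicates, DESeq2 with apeglm shrinkage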
Reported shrunken log2 fold change is given for each of the following sequences.

// worked examples, shrunken log2 fold change included
residues: RRIRNRPPRLPRPRPRPSTLPRP
shrunken log2 fold change: -0.474
//
residues: RRIRARPPRLPRPRPRPYDTPRP
shrunken log2 fold change: -0.0699

Incoming: Can you look up the measured shrunken log2 fold change of `RRIRGRPPRLPRPRPRPKANPRP` for me?
Outgoing: 0.836

Incoming: Now the same for `RRIRGRPPRLPRPRPRPCEIPRP`
Outgoing: 0.128

Incoming: Now the same for `RRIRSRPPRLPRPRPRPNYEPRP`
Outgoing: -0.609

Incoming: Now the same for `RRIRRRPPRLPRPRPRPCNTPRP`
Outgoing: -0.295

Incoming: Now the same for `RRIRERPPRLPRPRPRPEPEPRP`
Outgoing: 0.475
